Tested on: U87MG human glioblastoma cell line
protocol-details: CyQuant assay in U87MG cells
Type: cell-based
particulars: U-87 MG, 72 h, 3 days incubation
measurement-type: EC50 (nM)

>>> test_result("CCc1ncnc(N2CCCCC2)c1C#Cc1ccc(NC)nc1")
745

---

Let's go through some IC50 measurements on mTOR (Homo sapiens (Human), UniProt P42345) together.
Sequence (P42345 1360-2549): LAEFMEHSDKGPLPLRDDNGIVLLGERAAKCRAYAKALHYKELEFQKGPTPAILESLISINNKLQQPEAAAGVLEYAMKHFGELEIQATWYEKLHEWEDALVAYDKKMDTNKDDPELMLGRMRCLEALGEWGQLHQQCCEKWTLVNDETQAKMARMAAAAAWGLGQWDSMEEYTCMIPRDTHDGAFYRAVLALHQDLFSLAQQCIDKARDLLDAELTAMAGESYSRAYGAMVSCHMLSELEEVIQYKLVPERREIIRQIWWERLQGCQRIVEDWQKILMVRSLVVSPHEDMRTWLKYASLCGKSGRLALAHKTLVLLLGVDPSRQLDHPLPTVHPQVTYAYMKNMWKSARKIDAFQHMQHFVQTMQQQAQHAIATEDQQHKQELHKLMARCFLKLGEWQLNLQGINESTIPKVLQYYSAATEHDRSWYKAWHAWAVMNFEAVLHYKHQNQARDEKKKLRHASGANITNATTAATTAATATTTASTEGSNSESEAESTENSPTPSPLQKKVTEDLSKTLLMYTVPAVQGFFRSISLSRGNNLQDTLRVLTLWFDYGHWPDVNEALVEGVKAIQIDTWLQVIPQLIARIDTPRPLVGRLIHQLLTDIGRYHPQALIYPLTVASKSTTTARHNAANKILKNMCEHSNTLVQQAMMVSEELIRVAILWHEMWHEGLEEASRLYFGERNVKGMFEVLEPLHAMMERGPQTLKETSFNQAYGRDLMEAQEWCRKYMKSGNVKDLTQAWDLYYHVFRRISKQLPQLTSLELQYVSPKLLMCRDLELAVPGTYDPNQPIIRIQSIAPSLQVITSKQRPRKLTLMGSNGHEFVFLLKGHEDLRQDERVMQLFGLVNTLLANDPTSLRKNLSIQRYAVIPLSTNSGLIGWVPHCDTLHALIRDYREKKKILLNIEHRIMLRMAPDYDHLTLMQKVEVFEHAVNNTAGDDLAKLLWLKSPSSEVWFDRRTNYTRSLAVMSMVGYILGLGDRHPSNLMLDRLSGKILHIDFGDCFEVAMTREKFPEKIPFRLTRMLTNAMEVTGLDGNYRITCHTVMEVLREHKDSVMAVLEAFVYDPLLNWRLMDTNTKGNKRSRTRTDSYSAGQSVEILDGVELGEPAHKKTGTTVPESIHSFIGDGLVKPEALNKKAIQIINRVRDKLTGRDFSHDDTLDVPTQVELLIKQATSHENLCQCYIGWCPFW
measurement-type: IC50 (µM)

>>> test_result("Cc1ncnc(N2CCN(CC(C)(C)O)CC2)c1C#Cc1ccc(N)nc1")
0.018
>>> test_result("Cc1ncnc(N2CCC(C)(O)CC2)c1C#Cc1ccc(N)nc1")
0.007
>>> test_result("Cc1ncnc(N2CCC(O)C(C)C2)c1C#Cc1ccc(N)nc1 (centres unmarked)")
0.043
>>> test_result("CCc1ncnc(N2CCS(=O)(=O)CC2)c1C#Cc1ccc(N)nc1")
0.012
>>> test_result("Cc1ncnc(N2CCC(CNC(=O)CC(C)C)CC2)c1C#Cc1ccc(N)nc1")
0.237

---

subject-of-test: PI3Kalpha (Homo sapiens (Human), UniProt P42336)
Sequence (P42336 whole entry, species assumed): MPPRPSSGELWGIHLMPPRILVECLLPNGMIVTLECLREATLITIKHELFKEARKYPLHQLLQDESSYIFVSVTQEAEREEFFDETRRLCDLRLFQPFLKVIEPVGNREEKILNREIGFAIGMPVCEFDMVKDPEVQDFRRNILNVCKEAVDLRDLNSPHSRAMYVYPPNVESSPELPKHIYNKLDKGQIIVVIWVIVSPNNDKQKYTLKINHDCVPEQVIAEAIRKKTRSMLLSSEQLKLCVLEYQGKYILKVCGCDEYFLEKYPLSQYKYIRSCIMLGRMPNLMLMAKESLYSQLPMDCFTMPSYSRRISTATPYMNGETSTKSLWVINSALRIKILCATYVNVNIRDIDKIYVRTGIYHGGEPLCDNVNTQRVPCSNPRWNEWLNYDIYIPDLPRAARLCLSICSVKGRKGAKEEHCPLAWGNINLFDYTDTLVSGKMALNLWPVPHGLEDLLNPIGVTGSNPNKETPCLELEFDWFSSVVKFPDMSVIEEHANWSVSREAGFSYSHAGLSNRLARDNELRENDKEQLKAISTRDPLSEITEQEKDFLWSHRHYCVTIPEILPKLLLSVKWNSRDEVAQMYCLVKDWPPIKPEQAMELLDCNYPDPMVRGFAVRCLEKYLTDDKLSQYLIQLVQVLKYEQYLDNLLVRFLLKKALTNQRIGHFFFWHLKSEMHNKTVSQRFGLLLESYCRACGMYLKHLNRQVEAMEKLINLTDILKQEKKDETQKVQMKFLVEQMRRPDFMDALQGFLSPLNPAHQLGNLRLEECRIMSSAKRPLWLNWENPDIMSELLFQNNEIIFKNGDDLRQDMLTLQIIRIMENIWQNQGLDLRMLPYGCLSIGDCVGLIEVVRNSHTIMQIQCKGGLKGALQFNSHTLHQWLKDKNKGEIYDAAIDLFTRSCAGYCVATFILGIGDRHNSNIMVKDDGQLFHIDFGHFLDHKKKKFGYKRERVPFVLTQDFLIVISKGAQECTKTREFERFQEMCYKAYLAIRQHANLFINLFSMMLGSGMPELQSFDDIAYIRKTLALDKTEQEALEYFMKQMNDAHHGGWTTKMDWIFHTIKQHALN
Sequence (P27986 whole entry partner, species assumed): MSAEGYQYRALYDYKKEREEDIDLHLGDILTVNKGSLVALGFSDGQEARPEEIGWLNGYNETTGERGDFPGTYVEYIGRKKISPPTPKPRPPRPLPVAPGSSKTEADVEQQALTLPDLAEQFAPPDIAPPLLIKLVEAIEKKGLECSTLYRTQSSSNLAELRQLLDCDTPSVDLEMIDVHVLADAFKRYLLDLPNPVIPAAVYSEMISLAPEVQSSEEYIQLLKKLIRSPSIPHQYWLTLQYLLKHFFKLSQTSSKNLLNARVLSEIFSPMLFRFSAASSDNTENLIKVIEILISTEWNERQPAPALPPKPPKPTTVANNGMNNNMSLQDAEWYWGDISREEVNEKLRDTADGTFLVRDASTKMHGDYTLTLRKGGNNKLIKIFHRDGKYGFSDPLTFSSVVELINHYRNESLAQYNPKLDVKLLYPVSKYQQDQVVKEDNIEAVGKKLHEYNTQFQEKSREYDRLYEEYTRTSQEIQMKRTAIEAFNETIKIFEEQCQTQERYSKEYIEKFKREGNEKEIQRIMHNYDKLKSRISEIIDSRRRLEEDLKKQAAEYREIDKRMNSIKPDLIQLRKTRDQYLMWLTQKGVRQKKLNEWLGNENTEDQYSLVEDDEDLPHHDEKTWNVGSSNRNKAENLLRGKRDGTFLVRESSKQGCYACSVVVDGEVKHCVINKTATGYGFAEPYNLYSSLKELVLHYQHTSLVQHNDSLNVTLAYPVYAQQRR
protocol-details: Inhibition of PI3Kalpha-induced PIP-2 phosphorylation (filter-binding assay)
Assay type: biochemical
particulars: 33P-ATP
Method: Inhibition of PI3Kalpha-Induced PIP-2 Phosphorylation Method Type: Filter-Binding-Assay Aliquoted in desired amounts and stored at −80° C. Final assay concentration 25 ng/well.
Please use 1 for IC50 PI3Ka under 50 nM and -1 for everything else, ties included.

>>> classification("CC(=O)NC1CCN(c2ncnc(C)c2C#Cc2ccc(N)nc2)CC1")
-1
>>> classification("CCc1ncnc(N2CCC(C(C)(C)O)CC2)c1C#Cc1ccc(N)nc1")
1
>>> classification("CCc1ncnc(N2CCC3(CCCCC3)CC2)c1C#Cc1ccc(N)nc1")
-1
>>> classification("CCc1ncnc(N2CCC3(CC2)CC(=O)NC(=O)C3)c1C#Cc1ccc(N)nc1")
1
>>> classification("Cc1ncnc(N2CCNC(=O)CC2)c1C#Cc1ccc(N)nc1")
-1
>>> classification("Cc1ncnc(N2CCC3(CC2)OCCCO3)c1C#Cc1ccc(N)nc1")
1
>>> classification("CCc1ncnc(N2CCN(C3COC3)CC2)c1C#Cc1ccc(N)nc1")
-1
>>> classification("CCc1ncnc(N2CCN(Cc3nc(C)c(C)o3)CC2)c1C#Cc1ccc(N)nc1")
-1
>>> classification("CCc1ncnc(N2CCN(CCNS(C)(=O)=O)CC2)c1C#Cc1ccc(N)nc1")
-1
>>> classification("CCc1ncnc(N2CCC3(CCNC3=O)CC2)c1C#Cc1ccc(N)nc1")
-1
>>> classification("Cc1ncnc(N2CCC3(CCN(C)C3=O)CC2)c1C#Cc1ccc(N)nc1")
1
>>> classification("Cc1ncnc(N2CCC(CNC(=O)CN(C)C)CC2)c1C#Cc1ccc(N)nc1")
-1
>>> classification("CCc1ncnc(N2CCC(CO)CC2)c1C#Cc1ccc(C)nc1")
-1
>>> classification("Cc1ncnc(N2CCOCC2)c1C#Cc1ccc(N)nc1")
1
>>> classification("Cc1ncnc(N2CCC3(CCN(C)CC3)CC2)c1C#Cc1ccc(N)nc1")
-1
>>> classification("CCc1ncnc(N2CCN(C(=O)c3ccccn3)CC2)c1C#Cc1ccc(N)nc1")
1
>>> classification("CCc1ncnc(N2CCCC2)c1C#Cc1ccc(N)nc1")
-1
>>> classification("CCc1ncnc(N2CCC(CCO)CC2)c1C#Cc1ccc(N)nc1")
1
>>> classification("CCc1ncnc(N2CCCC(CO)C2)c1C#Cc1ccc(C)nc1 (stereo not shown)")
-1
>>> classification("CCc1ncnc(N2CCC3(CC2)OCCCO3)c1C#Cc1ccc(N)nc1")
1
>>> classification("CCc1ncnc(N2CCn3c(COC)nnc3C2)c1C#Cc1ccc(N)nc1")
-1
>>> classification("CCc1ncnc(N2CCNC(=O)CC2)c1C#Cc1ccc(N)nc1")
-1
>>> classification("CCc1ncnc(N2CCC(O)CC2)c1C#Cc1ccc(C)nc1")
-1
>>> classification("Cc1ccc(C(=O)N2CCN(c3ncnc(C)c3C#Cc3ccc(N)nc3)CC2)o1")
1
>>> classification("CCc1ncnc(N2CCCC(CO)C2)c1C#Cc1ccc(N)nc1 (stereo not shown)")
-1
>>> classification("CCc1ncnc(N2CCS(=O)(=O)CC2)c1C#Cc1ccc(N)nc1")
-1
>>> classification("CCc1ncnc(N2CCC(O)(C(F)(F)F)CC2)c1C#Cc1ccc(N)nc1")
-1
>>> classification("CCc1ncnc(N2CCC(O)C(C)C2)c1C#Cc1ccc(N)nc1 (stereo not shown)")
-1
>>> classification("CCc1ncnc(N2CCN(C(C)C)CC2)c1C#Cc1ccc(N)nc1")
-1
>>> classification("CCc1ncnc(N2CCN(C)C(=O)C2)c1C#Cc1ccc(N)nc1")
-1
>>> classification("Cc1ncnc(N2CCC(O)(Cc3ccccc3)CC2)c1C#Cc1ccc(N)nc1")
-1
>>> classification("CCc1ncnc(N2CCC(O)(c3ccccc3)CC2)c1C#Cc1ccc(N)nc1")
-1
>>> classification("CC(=O)NCC1CCN(c2ncnc(C)c2C#Cc2ccc(N)nc2)CC1")
1
>>> classification("Cc1ncnc(N2CCN(C(=O)C3CCC3)CC2)c1C#Cc1ccc(N)nc1")
1
>>> classification("CCc1ncnc(N2CCN(C(=O)NC)CC2)c1C#Cc1ccc(N)nc1")
1
>>> classification("CCc1ncnc(N2CCC(C)(OC)CC2)c1C#Cc1ccc(N)nc1")
-1
